- Procedure text: Quantitative highthroughput screen to assess conditional lethalithy of SEM cells grown in Human Plasma-Like Medium with dialyzed fetal bovine serum (HPLM+ds) (AID 1963882); further: nearly all actives have a fitted effect of over 35% in size
- Conditions used: SEM B-ALL cells in HPLM+ds, CellTiter-Glo viability, 48 h; series mostly up to 45.8 µM
Records with an inconclusive call do not appear. Activity calls are given as the source filed them. The call rests on the fitted dose curve; in most records, active means well fitted cell-killing curve with a large enough effect; inconclusive means small, poorly fitted or top-dose-only effect, or effect the other way; inactive means no such curve, though single readings can be large or run the other way.
Readout name: outcome

Compound: O=C(CS(=O)Cc1ccco1)NCC=CCOc1cc(CN2CCCCC2)ccn1 (centres undefined)
Readout name: outcome
Endpoint result: inactive
//
Compound: CC(=O)[C@H]1CC[C@H]2[C@@H]3CCC4=CC(=O)CC[C@]4(C)[C@H]3CC[C@]12C
Readout name: outcome
Endpoint result: inactive
//
Compound: CC1(C)SCCN(S(=O)(=O)c2ccc(OCC#CCO)cc2)[C@@H]1C(=O)NO
Readout name: outcome
Endpoint result: inactive
//
Compound: CCOc1cc(CC(=O)N[C@@H](CC(C)C)c2ccccc2N2CCCCC2)ccc1C(=O)O
Readout name: outcome
Endpoint result: inactive

* * *

- Procedure text: Cellular viability qHTS for adrenocortical cancer (ACC) cell line NCI-H295R (AID 1963990); further: nearly all actives have a fitted effect of over 60% in size
- Conditions used: CellTiter-Glo ATP luminescence, 48 h; series mostly up to 46.1 µM
Records with an inconclusive call do not appear. Calls of active or inactive are those of the source. Calls follow the shape of the dose curve; as a rule, active = well fitted cell-killing curve with a large enough effect; inconclusive = small, poorly fitted or top-dose-only effect; inactive = flat fitted curve, though single readings scatter.
Your reply should match one of these outcome classes. active, inactive

Below, 3 compounds whose answers are already recorded.
Compound: C[C@@H](NCc1cc2ccccc2[nH]1)c1cccc2ccccc12
Label class: active
--
Compound: COc1cc2nc(N(C)CCCNC(=O)C3CCCO3)nc(N)c2cc1OC (stereo not drawn)
Label class: inactive
--
Compound: N#Cc1cc(NC(=O)Nc2nnc(-c3ccncc3)s2)ccc1-c1cn[nH]c1
Label class: inactive

What was the test verdict on CC[C@]12CCCN3CCc4c(n(c5ccccc45)C(=O)C1)[C@@H]32 ? active

For O=C(N/N=C/c1ccc([N+](=O)[O-])o1)c1ccc(O)cc1 , what call appears in the results of this test? active

Name the outcome recorded for c1ccc2[nH]c(-c3cscn3)nc2c1 in the assay. inactive

So what was the verdict on O=C(OCCN1CCOCC1)c1cccnc1Nc1cccc(C(F)(F)F)c1 in this test? inactive

Assay result, entry Cc1cc(NC(=O)C2=C(O)c3ccccc3S(=O)(=O)N2C)no1 — outcome? inactive

Which outcome was assigned to CC1(C)S[C@H]2[C@H](NC(=O)[C@@H](N)c3ccc(O)cc3)C(=O)N2[C@H]1C(=O)O in this test? inactive

Please state the recorded outcome for this compound: CC[C@@]1(O)C(=O)OCc2c1cc1n(c2=O)Cc2c-1nc1ccccc1c2/C=N/OC(C)(C)C inactive

Please state the recorded outcome for this compound: N#CC1(c2ccc(NC(=O)c3cccnc3NCc3ccncc3)cc2)CCCC1 inactive

For N#Cc1ccc(COC[C@H]2O[C@@H](n3c(NCc4ccc(Cl)c(Cl)c4)nc4c(N)ncnc43)[C@H](O)[C@@H]2O)cc1 , which call appears in the assay record? inactive

I would be grateful if you could indicate the recorded call for N#CSCC(=O)O . inactive

* * *

- Procedure text: Cellular viability qHTS for adrenocortical cancer (ACC) cell line NCI-H295R (AID 1963990); further: nearly all actives have a fitted effect of over 60% in size
- Conditions used: CellTiter-Glo ATP luminescence, 48 h; series mostly up to 46.1 µM
Inconclusive results are not listed. Active and inactive are the calls of the source. Calls come from the whole dose curve; as a rule, active = well fitted cell-killing curve with a large enough effect; inconclusive = small, poorly fitted or top-dose-only effect; inactive = flat fitted curve, though single readings scatter.
Respond only with the outcome that fits, drawn from true = active, false = inactive

Reference set, count: 5
Compound: CC(=O)c1cnc2ccc(-c3cc(Cl)c(O)c(Cl)c3)nc2c1NC1CCC(CN(C)C)CC1 (centres undefined)
Label class: true
--
Compound: O=C1CN2Cc3c(ccc(Cl)c3Cl)N=C2N1
Label class: false
--
Compound: C[N+](C)([O-])CCNc1ccc(NCC[N+](C)(C)[O-])c2c1C(=O)c1c(O)ccc(O)c1C2=O
Label class: false
--
Compound: CNC(=O)c1c(I)c(NC(=O)CCCCC(=O)Nc2c(I)c(C(=O)O)c(I)c(C(=O)NC)c2I)c(I)c(C(=O)O)c1I
Label class: false
--
Compound: O=C(O)c1ccccc1Nc1cccc(C(F)(F)F)c1
Label class: false

Okay, next one:
Which outcome was entered for the compound C=C(C)[C@@H]1CC[C@]2(C)CC[C@]3(C)[C@H](CC[C@@H]4[C@@]5(C)CC[C@H](O)C(C)(C)[C@H]5CC[C@]43C)[C@@H]12 in this test? false

* * *

- Procedure text: Viability qHTS for spleen associated tyrosine kinase inhibitor (SYKi) drug resistant MV4-11 cells (AID 1963824); further: nearly all actives have a fitted effect of over 35% in size
- Conditions used: SYKi-resistant MV4-11 viability, CellTiter-Glo, 72 h; series mostly up to 45 µM
Results filed as inconclusive are left out. Activity calls are given as the source filed them. Calls come from the whole dose curve; as a rule, active = well fitted cell-killing curve with a large enough effect; inconclusive = small, poorly fitted or top-dose-only effect, or effect the other way; inactive = no such curve, though single readings can be large or run the other way.
Choose the fitting class; nothing outside T (active), F (inactive) is accepted.

Molecule: Cc1cc(-c2nc3cc(F)ccc3s2)ccc1NC(=O)[C@@H](N)CCCCN
Label class: T
//
Molecule: CN(c1ncccc1CNc1nc(Nc2ccc3c(c2)CC(=O)N3)ncc1C(F)(F)F)S(C)(=O)=O
Label class: T
//
Molecule: O=c1[nH]c2cc(C(F)(F)F)c(N3CCOCC3)cc2n(CP(=O)(O)O)c1=O
Label class: F
//
Molecule: COC(=O)C(C)C1CCC2(C)C(=O)C=CC(C)(O)C2C1O (stereo not drawn)
Label class: F
//
Molecule: Cc1cc(-c2cnc(N)c3c(-c4ccc5scnc5c4)csc23)n(C)n1
Label class: T
//
Molecule: CCC(NC(=O)CC(NC(=O)C(CO)NC(=O)C(CC)NC(=O)c1ccc[nH]1)c1ccccc1)C(=O)O (stereo not drawn)
Label class: F

Kindly provide the recorded test outcome for the following molecule: Cc1cnc(Nc2cccc(CN3CCOCC3)c2)nc1Nc1cccc(S(=O)(=O)NC(C)(C)C)c1 T

# lookup: test call for COc1cccc(CN(C(=O)CC(C)(C)C)[C@H]2C[C@H](C(=O)N3CCNCC3)N(Cc3ccc4c(c3)OCO4)C2)c1 T

Please indicate how the test categorized C=C1C(=O)O[C@@H]2[C@H]3C(C)=CC[C@@]34O[C@@]4(C)CC[C@@H]12 . T

Fill in: this test's call for COc1ccccc1-c1ccc(-c2cn(C(=O)N3CCCCC3Cc3ccccc3)nn2)cc1 (stereo not drawn) is ___ T

What was the test verdict on Nc1nc(=S)c2[nH]cnc2[nH]1 ? T

Please let me know the test result on file for CC(=O)N(O)CCCCCN1C(=O)CCC1=O . F

What is the recorded call for this molecule in the test? CC(=O)OC1C(=O)C2(C)C(O)CC3OCC3(OC(C)=O)C2C(OC(=O)c2ccccc2)C2(O)CC(OC(=O)C(O)C(NC(=O)c3ccccc3)c3ccccc3)C(C)=C1C2(C)C (stereo not drawn) T

Answer briefly: the call reported for CC(=O)N1CCN(C(=O)Cc2ccc(Nc3ncc(F)c(Nc4ccc(C(=O)Nc5ccccc5Cl)cc4)n3)cc2)CC1 in this assay. T

Can you look up the reported call for CC1(C)S[C@@H]2[C@H](NC(=O)[C@H](N)c3ccc(O)cc3)C(=O)N2[C@H]1C(=O)O for me? F

Kindly provide the recorded test outcome for the following molecule: COc1ccc(-c2nc(-c3cc(C(F)(F)F)cc(C(F)(F)F)c3)n(Cc3ccc(C(N)=O)cc3)c2-c2ccc(OC)cc2)cc1 T

* * *

- Procedure text: Viability qHTS for spleen associated tyrosine kinase inhibitor (SYKi) drug resistant MV4-11 cells (AID 1963824); further: nearly all actives have a fitted effect of over 35% in size
- Conditions used: SYKi-resistant MV4-11 viability, CellTiter-Glo, 72 h; series mostly up to 45 µM
- Experimental: Department of Medicine, Hematology/Oncology University Hospital Frankfurt, Germany. Trials have shown promising clinical activity of the selective SYK inhibitor entospletinib in patients with high expressing HOXA9/MEIS1 acute leukemias. […] 7; Detection; Luminescence; ViewLux plate reader (PerkinElmer). […] 1. Quantitative high-throughput screening (qHTS) of small molecule compounds was conducted on drug resistant SYKi MV4-11 cell line. […] 7. Luminescence was measured on a ViewLux plate reader (PerkinElmer).
Inconclusive results are not listed. Active and inactive are the calls of the source. The call rests on the fitted dose curve; in most records, active means well fitted cell-killing curve with a large enough effect; inconclusive means small, poorly fitted or top-dose-only effect, or effect the other way; inactive means no such curve, though single readings can be large or run the other way.
Select the correct class. Options are active, inactive and nothing else.

Compound: CCC(C)n1ncn(-c2ccc(N3CCN(c4ccc(OC[C@H]5CO[C@](Cn6cncn6)(c6ccc(Cl)cc6Cl)O5)cc4)CC3)cc2)c1=O (some centres not stated)
Label class: active
--
Compound: CNC(=O)COC(=O)NCCC1CCN(c2cccc(C)n2)CC1
Label class: inactive

Call for entry Cc1cn(C[C@H](N)C(=O)O)c(=O)n(Cc2ccsc2C(=O)O)c1=O : inactive

Just curious, what result did CC1=CCC(C(C)(C)O[C@@H]2O[C@H](CO[C@@H]3O[C@@H](C)[C@H](O)[C@@H](O)[C@H]3O)[C@@H](O)[C@H](O)[C@H]2O)CC1 (some centres not stated) get here? inactive

Assay result, entry O=C(O)Cc1cn([C@@H]2O[C@H](CO)[C@@H](O)[C@H](O)[C@H]2O[C@@H]2O[C@H](CO)[C@@H](O)[C@H](O)[C@H]2O)c2ccccc12 — outcome? inactive

Recorded call for O=C1OC2(CCC(C(=O)Nc3ccn(-c4ccccc4F)n3)CC2)c2cnccc21 (configuration not stated) ? active
